- assayed.system: T1, recombinant cyno BCMA, in house material (cyno, UniProt A0A2K5UD97 4-52)
- T1 construct: also called Cyno in house BCMA
- T1 sequence (A0A2K5UD97 entry or part of it): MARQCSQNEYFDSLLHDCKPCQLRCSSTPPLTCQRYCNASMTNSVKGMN
- test.description: ProteOn SPR run 2, antibody captured on Protein A, 25C
outcome.measure: Kd

(Q) For the binder CA8 humanised J6M0 (antibody, human IgG1, kappa, V domains shown, Humanised CA8, heavy chain J6 with light chain M0, human IgG1 kappa; also called CA8 J6M0; humanised J6M0 (wild type)) VH: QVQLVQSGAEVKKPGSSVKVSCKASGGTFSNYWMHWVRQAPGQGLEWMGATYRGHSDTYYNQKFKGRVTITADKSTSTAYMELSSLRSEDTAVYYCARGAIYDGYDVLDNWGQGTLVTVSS VL: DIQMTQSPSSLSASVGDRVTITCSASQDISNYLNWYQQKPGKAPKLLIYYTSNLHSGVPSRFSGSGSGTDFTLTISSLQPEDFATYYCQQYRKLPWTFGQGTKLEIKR , what Kd is on record?
(A) 5.63 nM
